- Tested on: CYP3A
- test: Time-dependent inhibition of CYP3A in human liver microsomes
- Type: in vitro ADME
- measurement_conditions: human, probe midazolam (50 µM)
property_label: kinact (s⁻¹)

                    structure_smiles_string  measurement
0  C[C@H]1CN(C2COC2)CCN1c1ccc(Nc2cc(-c3ccnc(N4CCn5c(cc6c5CC(C)(C)C6)C4=O)c3CO)cn(C)c2=O)nc1      0.00019

---

- tested_system: OATP1B1 (Homo sapiens, UniProt Q9Y6L6)
- Sequence (Q9Y6L6 1-691): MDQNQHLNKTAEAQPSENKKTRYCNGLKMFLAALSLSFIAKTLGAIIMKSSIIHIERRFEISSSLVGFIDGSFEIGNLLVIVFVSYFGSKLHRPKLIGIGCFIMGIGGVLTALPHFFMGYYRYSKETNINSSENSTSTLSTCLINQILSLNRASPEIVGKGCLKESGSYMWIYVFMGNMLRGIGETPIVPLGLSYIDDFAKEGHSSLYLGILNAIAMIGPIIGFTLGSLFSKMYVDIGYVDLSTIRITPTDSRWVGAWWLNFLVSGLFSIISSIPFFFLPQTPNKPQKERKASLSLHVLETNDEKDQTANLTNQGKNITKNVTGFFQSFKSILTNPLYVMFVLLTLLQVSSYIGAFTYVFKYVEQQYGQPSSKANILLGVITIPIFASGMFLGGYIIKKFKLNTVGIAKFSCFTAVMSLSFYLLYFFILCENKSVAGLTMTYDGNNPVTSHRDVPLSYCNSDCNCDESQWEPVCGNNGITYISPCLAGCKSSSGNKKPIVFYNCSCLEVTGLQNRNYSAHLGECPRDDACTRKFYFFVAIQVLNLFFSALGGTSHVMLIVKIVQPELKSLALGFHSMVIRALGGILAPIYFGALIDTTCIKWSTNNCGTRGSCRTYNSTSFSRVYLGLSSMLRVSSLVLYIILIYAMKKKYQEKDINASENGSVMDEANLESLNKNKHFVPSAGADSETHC
- test: Inhibition of OATP1B1-mediated E217ßG uptake in HEK293 cells
property_label: IC50 (µM)

                                   compound  measurement
0  C[C@H]1CN(C2COC2)CCN1c1ccc(Nc2cc(-c3ccnc(N4CCn5c(cc6c5CC(C)(C)C6)C4=O)c3CO)cn(C)c2=O)nc1 [fenebrutinib]         19.7

---

- System: CYP3A
- test: Time-dependent inhibition of CYP3A in human liver microsomes
- Format: in vitro ADME
- measurement_conditions: human, probe testosterone (250 µM)
property_label: kinact (s⁻¹)

In [3]: df
Out[3]:
                    structure_smiles_string  measurement
0  C[C@H]1CN(C2COC2)CCN1c1ccc(Nc2cc(-c3ccnc(N4CCn5c(cc6c5CC(C)(C)C6)C4=O)c3CO)cn(C)c2=O)nc1      0.00025

---

- Tested on: BCRP and OATP1B
- test: Clinical DDI study part 2: effect of fenebrutinib on PK of rosuvastatin
- measurement_conditions: both, human, plasma, oral
property_label: half-life (h)

                                   compound    tested_system  property_label  measurement
0  CC(C)c1nc(N(C)S(C)(=O)=O)nc(-c2ccc(F)cc2)c1/C=C/[C@@H](O)C[C@@H](O)CC(=O)O [Rosuvastatin, rosuvastatin]  BCRP and OATP1B       half-life         18.2

---

- test: Fenebrutinib plasma exposure at 200 mg b.i.d. in the clinical DDI study
- Assay type: in vivo
- measurement_conditions: human, oral, observed Cmax at steady-state, data not shown
property_label: Cmax

In [3]: df
Out[3]:
                    structure_smiles_string  measurement
0  C[C@H]1CN(C2COC2)CCN1c1ccc(Nc2cc(-c3ccnc(N4CCn5c(cc6c5CC(C)(C)C6)C4=O)c3CO)cn(C)c2=O)nc1     ~1000 nM

---

- tested_system: OATP1B3 (Homo sapiens, UniProt Q9NPD5)
- Sequence (Q9NPD5 whole entry): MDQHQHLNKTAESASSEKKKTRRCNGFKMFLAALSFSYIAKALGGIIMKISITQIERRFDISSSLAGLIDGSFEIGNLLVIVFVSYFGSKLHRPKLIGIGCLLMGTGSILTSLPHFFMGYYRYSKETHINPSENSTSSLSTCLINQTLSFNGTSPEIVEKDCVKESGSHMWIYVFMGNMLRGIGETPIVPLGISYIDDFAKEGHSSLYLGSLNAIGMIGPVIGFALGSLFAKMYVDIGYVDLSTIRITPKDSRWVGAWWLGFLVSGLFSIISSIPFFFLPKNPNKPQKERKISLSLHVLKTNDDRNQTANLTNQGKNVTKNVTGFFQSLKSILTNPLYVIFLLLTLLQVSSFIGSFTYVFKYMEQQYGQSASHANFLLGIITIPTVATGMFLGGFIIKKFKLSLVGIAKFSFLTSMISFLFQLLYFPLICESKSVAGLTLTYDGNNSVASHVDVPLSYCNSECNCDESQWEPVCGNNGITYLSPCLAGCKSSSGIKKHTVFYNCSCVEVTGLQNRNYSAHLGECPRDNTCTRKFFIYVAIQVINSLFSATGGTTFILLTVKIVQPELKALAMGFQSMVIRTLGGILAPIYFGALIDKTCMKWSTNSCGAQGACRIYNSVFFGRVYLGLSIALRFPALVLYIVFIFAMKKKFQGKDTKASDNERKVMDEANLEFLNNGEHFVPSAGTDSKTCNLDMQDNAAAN
- test: Inhibition of OATP1B3-mediated CCK-8 uptake in HEK293 cells
- Format: in vitro ADME
- measurement_conditions: human, HEK293 cells stably expressing human OATP1B3, pH 7.4, probe CCK-8 (0.1 μM)
property_label: inhibition at 30 μM (%)

>>> print(df.to_string())
                    structure_smiles_string  measurement
0  C[C@H]1CN(C2COC2)CCN1c1ccc(Nc2cc(-c3ccnc(N4CCn5c(cc6c5CC(C)(C)C6)C4=O)c3CO)cn(C)c2=O)nc1         86.7

---

- test: Clinical DDI study part 2: effect of fenebrutinib on PK of rosuvastatin
- measurement_conditions: both, human, plasma, oral, 20 mg
property_label: half-life (h)

                    structure_smiles_string  result_unit  measurement
0  CC(C)c1nc(N(C)S(C)(=O)=O)nc(-c2ccc(F)cc2)c1/C=C/[C@@H](O)C[C@@H](O)CC(=O)O            h         19.9

---

- measurement_conditions: both, human, plasma, oral, 2 mg
property_label: half-life (min)

>>> df
                  structure_smiles_string  property_label  measurement
0  Cc1ncc2n1-c1ccc(Cl)cc1C(c1ccccc1F)=NC2       half-life          374

---

- Tested on: BCRP and OATP1B
- test: Clinical DDI study part 2: effect of fenebrutinib on PK of rosuvastatin
- measurement_conditions: both, human, plasma, oral, 20 mg
property_label: AUC(0-t) (ng·h/mL)

                    structure_smiles_string  property_label  measurement
0  CC(C)c1nc(N(C)S(C)(=O)=O)nc(-c2ccc(F)cc2)c1/C=C/[C@@H](O)C[C@@H](O)CC(=O)O        AUC(0-t)           91

---

- tested_system: UniProt:Q9NPD5
- test: Inhibition of OATP1B3-mediated CCK-8 uptake in HEK293 cells
pIC50: −log10 of the molar value.
property_label: pIC50

>>> df
                    structure_smiles_string  measurement
0  C[C@H]1CN(C2COC2)CCN1c1ccc(Nc2cc(-c3ccnc(N4CCn5c(cc6c5CC(C)(C)C6)C4=O)c3CO)cn(C)c2=O)nc1         5.15
